system: Hepatitis C virus; assay: Antiviral activity against HCV JFH1 infected in human Huh7.5.1 cells assessed as reduction in viral proteins after 72 hrs post compound dose by Western blotting method; assay type: functional, organism-based, Hepacivirus hominis; conditions: JFH1, Huh-7, 72 h
MEASURED PARAMETER: pIC50
For clarity, pIC50 is expressed as the negative log10 of concentration in mol/L.

Exercise: Value wanted: pIC50 (Hepatitis C virus) of entry COc1cc([C@@H]2Oc3cc([C@H]4Oc5cc(O)cc(O)c5C(=O)[C@@H]4O)ccc3O[C@H]2CO)ccc1O [SILYBIN B]
Solution: 4.40
